# systemName: T1, Peptide A (human PAR-2), unbiotinylated (Human)
# T1 construct: also called Peptide A No Biotin
# T1 peptide: GTNRSSKGRSLIGKVDGT
# procedureDetails: SPR, antibody captured
assayReadout: T1/2 (min)
The reply should contain only the number, in min.

A selection of reference data follows.
binder	assayReadout	assayResult
H4H585P (antibody, human IgG4, V domains shown, also called H1H585P variable regions) VH: QVQLVESGGGVVQPGRSLRLSCVASGFTFSRYGMHWVRQAPGKGLEWLIVISYDGINKYYADSVKGRFTISRDNSKNTVYLQMNSLRAEDTAVYYCAKGDFWSGYFDYWGQGTLVTVSS VL: DIVMTQTPLSSPVTLGQPASISCRSSQSLVHSDGNTYLSWLHQRPGQPPRLLIYKISNRFSGVPDRFSGSGAGTDFTLQISRVEAEDVGIYYCMQGTQFPTFGGGTKVEIK	T1/2	3.7
H4H580P (antibody, human IgG4, V domains shown, also called H1H580P variable regions) VH: QVQLVESGGGVVQPGRSLRLSCVASGFTFSRYGMHWVRQAPGKGLEWVVVISYDGINKYYADSVKGRFTISRDNSKNTVYLQMNSLRAEDTAVYHCAKGDFWSGYFDYWGQGTLVTVSS VL: DIVMTQTPLSSPVTLGQPASISCRSSQSLVHSDGNTYLSWLHQRPGQPPRLLIYKISNRFSGVPDRFSGSGAGTDFTLQISRVEAEDVGIYYCMQATQFPTFGGGTKVEIK	T1/2	0.88

Now for another entry.
// field: T1/2; key: H4H579P (antibody, human IgG4, V domains shown, also called H1H579P variable regions) VH: QVQLVESGGGVVQPGRSLRLSCVASGFTFSRYGMHWVRQAPGKGLEWLIVISYDGINKYYADSVKGRFTISRDNSKNTVYLQMNSLRAEDTGVYYCAKGDFWSGYFDYWGQGTLVTVSS VL: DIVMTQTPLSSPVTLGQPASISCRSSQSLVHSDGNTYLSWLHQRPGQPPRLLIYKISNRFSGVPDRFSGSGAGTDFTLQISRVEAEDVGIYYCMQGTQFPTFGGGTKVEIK ; value = 4

Where do these numbers come from? They come from patent US20110059095A1.
